- Target under test: T1, human GIP receptor (human) (UniProt P48546)
- T1 sequence (looked up): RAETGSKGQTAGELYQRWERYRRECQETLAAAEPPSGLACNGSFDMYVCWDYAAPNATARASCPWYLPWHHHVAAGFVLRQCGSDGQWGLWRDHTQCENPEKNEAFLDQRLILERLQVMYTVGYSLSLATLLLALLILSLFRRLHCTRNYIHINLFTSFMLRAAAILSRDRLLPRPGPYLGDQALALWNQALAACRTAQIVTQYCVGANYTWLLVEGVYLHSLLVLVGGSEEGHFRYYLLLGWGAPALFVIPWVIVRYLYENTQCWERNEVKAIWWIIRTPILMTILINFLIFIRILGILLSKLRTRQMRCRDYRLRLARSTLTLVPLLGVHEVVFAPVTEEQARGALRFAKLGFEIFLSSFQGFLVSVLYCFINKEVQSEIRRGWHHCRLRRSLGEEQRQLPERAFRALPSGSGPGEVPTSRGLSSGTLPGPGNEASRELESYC
- Run description: cell-based or functional assay
Measurement kind: log10 cAMP Rel EC50 (receptor-expressing HEK-293 cells, 1% HSA) (log10 of the value in nM)
Heads up: the numbers are on a log10 scale; they represent cAMP Rel EC50 (receptor-expressing HEK-293 cells, 1% HSA) in nM.

Below, each entry is followed by its recorded log10 cAMP Rel EC50 (receptor-expressing HEK-293 cells, 1% HSA) result.
INSERT INTO assay_data (binder, assay_result) VALUES
  ('YXQGTXTSDXXIXLDXKAQXNFIEXLQEGGPSSGEPPPE (synthetic construct; SITE 2: note = 2-Aminoisobutyric Acid; SITE 6: note = alpha-methyl-2-fluoro-L-phenylalanine; SITE 10: note = 3-(4-Pyridyl)-L-alanine; SITE 11: note = alpha-methyl-L-serine; SITE 13: note = alpha-methyl-leucine; SITE 16: note = L-ornithine; SITE 17: note = Lysine is chemically mo) [Example 450]', 0.57),
  ('YXQGTXTSDXXILLDKKAQXAFIEYLEEGGPSSGAPPPE (Aib, αMeF(2F), 4Pal, αMeS, acylated Lys, amide; synthetic construct; SITE 2: note = 2-Aminoisobutyric Acid; SITE 6: note = alpha-methyl-2-fluoro-L-phenylalanine; SITE 10: note = 3-(4-Pyridyl)-L-alanine; SITE 11: note = alpha-methyl-L-serine; SITE 17: note = Lysine is chemically modified through conjugation of the epsilon-amino group of the Lysine) [Example 464]', 1.30);

// switching to the query binder
Kindly note the recorded log10 cAMP Rel EC50 (receptor-expressing HEK-293 cells, 1% HSA) for HXQGTXTSDXXIXLDXKAQXAFIEYLLEGGPSSGEPPPE (synthetic construct; SITE 2: note = 2-Aminoisobutyric Acid; SITE 6: note = alpha-methyl-2-fluoro-L-phenylalanine; SITE 10: note = 3-(4-Pyridyl)-L-alanine; SITE 11: note = alpha-methyl-L-serine; SITE 13: note = alpha-methyl-leucine; SITE 16: note = L-ornithine; SITE 17: note = Lysine is chemically mo) [Example 466] , which is 0.75

Each recorded value in this set is attributed to patent US20240270821A1.
